Assay: splicing luciferase reporter signal modulators, primary screen, spliceosome inhibition project, cell-based, HEK293, splice +/- reporter (AID 1101);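 further: HEK293 cells carrying a splicing-competent luciferase reporter gene; test concentration not given here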
Settings: luminescence, 24 h, higher = more signal, called active from +8 up or from −8 down
Calls of active or inactive are those of the source.
QUANTITY KIND: z-score

Memo: COc1cccc([C@H]2Oc3ccc(OC)cc3C(=NOC[C@@H](C)[C@H](OCc3ccccc3)C(C)C)[C@@H]2O)c1 , reported z-score: -0.171 (inactive)

Memo: CC(C)CON=C1C[C@@H](O)[C@@H](O)[C@@H]2[C@@H]3C(=O)N(Cc4ccc5c(c4)OCO5)C(=O)[C@@H]3CC[C@H]12 , reported z-score: 0.31 (inactive)

Memo: CCCNC(=O)OC[C@H]1O[C@H](CCON=Cc2ccc(C(=O)N3[C@H](c4ccc(C)cc4)[C@@H](C)CC[C@H]3C(=O)OC)cc2)C=C[C@@H]1Oc1ccc(OC)cc1 , reported z-score: -0.357 (inactive)

Memo: CC(C)CON=C1C[C@@H](O)[C@@H](O)[C@@H]2[C@@H]3C(=O)N(C4CCCCC4)C(=O)[C@@H]3CC[C@H]12 , reported z-score: 0.00397 (inactive)

Memo: COC(=O)[C@H](C)NC(=O)CCC1CC(OC(=O)NCCc2ccc(F)cc2)CC2(CCCC(COC(=O)NCc3cccc(C(F)(F)F)c3)O2)O1 (stereo not given in full) , reported z-score: 0.249 (inactive)

Memo: Cc1ccc(S(=O)(=O)NC(CCc2ccccc2)CC(=O)C(C)(C)C)cc1 (stereo not given) , reported z-score: -0.327 (inactive)

Memo: CCOC(=O)[C@H](CC(C)C)NC(=O)CCC1CC(OC(=O)NCCc2ccc(F)cc2)CC2(CCCC(COC(=O)NCC(c3ccccc3)c3ccccc3)O2)O1 (stereo not given in full) , reported z-score: 0.0587 (inactive)

Memo: CC(C)CON=C1C[C@@H](O)[C@@H](O)[C@@H]2[C@@H]3C(=O)N(C[C@@H]4CCCO4)C(=O)[C@@H]3CC[C@@H]12 , reported z-score: 0.926 (inactive)

Memo: CC(CCN1CCCc2nc(C)c(C)cc21)=NOC(C)CN1CCCCc2nc(C)c(C)cc21 (stereo not given) , reported z-score: 0.322 (inactive)

Memo: CON=C(C)CCC(=O)OC[C@H]1O[C@H](c2ccccc2)C=C[C@@H]1Oc1ccc(OC)cc1 , reported z-score: 0.115 (inactive)

Memo: O=C1[C@H]2[C@H]3[C@H](O)[C@H](O)CC(=NOCc4ccccc4)[C@@H]3CC[C@H]2C(=O)N1C[C@@H]1CCCO1 , reported z-score: 0.274 (inactive)

Memo: O=C1CCCC=C1C(O)CCCCBr (stereo not given) , reported z-score: -0.793 (inactive)

Memo: CC(C)=CCCC(C)=CCON=C1C[C@@H](O)[C@@H](O)[C@@H]2[C@@H]3C(=O)N(c4ccc(F)cc4F)C(=O)[C@@H]3CC[C@@H]12 , reported z-score: -0.118 (inactive)

Memo: COC(=O)[C@@H]1CC[C@H](C)[C@@H](c2ccc(C)cc2)N1C(=O)c1ccc(C=NO[C@H](C)c2cn([C@H](CO)Cc3ccccc3)nn2)cc1 , reported z-score: -0.178 (inactive)

Memo: COC(=O)[C@H](C)NC(=O)CCC1CC(OC(=O)NCCc2ccc(F)cc2)CC2(CCCC(COC(=O)NCCC(C)C)O2)O1 (stereo not given in full) , reported z-score: -1.56 (inactive)
